Molecular target: human LAP-TGFβ1 expressed on P3U1 cells (human, UniProt P01137 30-390)
Sequence (P01137 30-390): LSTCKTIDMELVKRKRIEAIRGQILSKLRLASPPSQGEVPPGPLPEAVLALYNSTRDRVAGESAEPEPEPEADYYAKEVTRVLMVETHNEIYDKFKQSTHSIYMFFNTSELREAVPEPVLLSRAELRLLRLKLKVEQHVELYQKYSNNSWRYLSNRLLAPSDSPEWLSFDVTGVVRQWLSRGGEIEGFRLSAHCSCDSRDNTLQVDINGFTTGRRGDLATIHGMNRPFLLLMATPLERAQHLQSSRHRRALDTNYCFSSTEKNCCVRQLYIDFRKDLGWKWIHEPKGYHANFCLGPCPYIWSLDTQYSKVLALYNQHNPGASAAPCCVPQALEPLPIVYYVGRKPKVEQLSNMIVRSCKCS
Test: cell-based or functional assay

{"columns": ["binder", "ELISA assay 2 EC50, µg/mL"],
 "data": [
  ["12BLM (antibody, human IgG1, kappa, L234A L235A, V domains shown, IgG1 L234A L235A D265S/kappa; also called 75BLH; 48BMD) VH: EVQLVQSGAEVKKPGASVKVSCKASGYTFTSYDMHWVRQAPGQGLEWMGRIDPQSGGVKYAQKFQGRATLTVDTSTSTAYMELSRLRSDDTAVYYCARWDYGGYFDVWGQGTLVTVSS VL: DIQMTQSPSSLSASVGDRVTITCRASQDIYNYLNWYQQKPGKAVKLLIYYTSVLETGVPSRFSGSGSGTDYTLTISSLQPEDFATYFCQQGDELPWTFGQGTKLEIKR", 0.096],
  ["16BLM (antibody, human IgG1, kappa, L234A L235A, V domains shown, IgG1 L234A L235A D265S/kappa; also called 79BLH; 52BMD) VH: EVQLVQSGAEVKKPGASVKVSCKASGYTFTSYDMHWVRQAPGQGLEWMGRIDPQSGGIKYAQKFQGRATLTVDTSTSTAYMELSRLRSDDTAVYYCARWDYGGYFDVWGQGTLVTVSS VL: DIQMTQSPSSLSASVGDRVTITCRASQDIYNYLNWYQQKPGKAVKLLIYYTSVLETGVPSRFSGSGSGTDYTLTISSLQPEDFATYFCQQGDTLPWTFGQGTKLEIKR", 0.126],
  ["18BLM (antibody, human IgG1, kappa, L234A L235A, V domains shown, IgG1 L234A L235A D265S/kappa; also called 81BLH; 54BMD) VH: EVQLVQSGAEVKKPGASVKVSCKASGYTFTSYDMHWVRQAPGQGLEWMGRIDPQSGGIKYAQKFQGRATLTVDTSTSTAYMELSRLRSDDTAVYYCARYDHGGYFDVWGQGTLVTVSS VL: DIQMTQSPSSLSASVGDRVTITCRASQDIYNYLNWYQQKPGKAVKLLIYYTSRLETGVPSRFSGSGSGTDYTLTISSLQPEDFATYFCQQGDTLPWTFGQGTKLEIKR", 0.006]
]}

Value source: patent US20230272056A1
